experiment: folding enthalpy; higher = less favourable; fluorescence melt of hairpins on a sequencing array, two-state fit; details: sodium 0.088 M
Measured parameter: folding enthalpy

[ask] Param item = GCCATGTCGAAAGACGGC (((..(((....)))))) ; retrieve measured folding enthalpy.
[reply] -20.1 kcal/mol

[ask] Param item = GCCCAGCGAAAGCAGAGC ((.(.((....)).).)) ; retrieve measured folding enthalpy.
[reply] -10.9 kcal/mol

[ask] Param item = GACCACGGAAACGTAGCC (.(.(((....))).).) ; retrieve measured folding enthalpy.
[reply] -9.48 kcal/mol

[ask] Param item = GATCTAGGCGTAGATC ((((((....)))))) ; retrieve measured folding enthalpy.
[reply] -32.4 kcal/mol

[ask] Param item = GATCTTTGGCAAGATC ((((((....)))))) ; retrieve measured folding enthalpy.
[reply] -29 kcal/mol

[ask] Param item = GATCGGGGCGCCGATC ((((((....)))))) ; retrieve measured folding enthalpy.
[reply] -39 kcal/mol

[ask] Param item = GCACACGAAAGTGGCTGC ((((((....)))..))) ; retrieve measured folding enthalpy.
[reply] -20.7 kcal/mol

[ask] Param item = GCACGTGGAAACGTGTGC ((((..(....)..)))) ; retrieve measured folding enthalpy.
[reply] -24.8 kcal/mol

[ask] Param item = GCTCAGCGAAAGCTTGGC ((..(((....)))..)) ; retrieve measured folding enthalpy.
[reply] -18.8 kcal/mol

[ask] Param item = GAGTTTCCGAAAGGACTC (((..(((....)))))) ; retrieve measured folding enthalpy.
[reply] -13.3 kcal/mol

[ask] Param item = GATCTAAACGTAGATC ((((((....)))))) ; retrieve measured folding enthalpy.
[reply] -28.7 kcal/mol

[ask] Param item = CGCTCCGGAAACGGTGCG (((.(((....))).))) ; retrieve measured folding enthalpy.
[reply] -31.3 kcal/mol

[ask] Param item = GGCTCTCGAAAGAGGGCC (((.(((....))).))) ; retrieve measured folding enthalpy.
[reply] -39.3 kcal/mol

[ask] Param item = GGCACACGAAAGTGAGCC (((.(((....))).))) ; retrieve measured folding enthalpy.
[reply] -38.1 kcal/mol

[ask] Param item = GCGACGACGAAAGTCCGC (((..(((....)))))) ; retrieve measured folding enthalpy.
[reply] -24.7 kcal/mol

----------
test: folding enthalpy; higher = less favourable; fluorescence melt of hairpins on a sequencing array, two-state fit; settings: sodium 0.088 M
Measured parameter: folding enthalpy (kcal/mol)
Entry rule: numbers only, all in kcal/mol.

[ask] Param item = GGTAGCGAAAGCTCTACC ((((((....)))..))) ; retrieve measured folding enthalpy.
[reply] -16.4

[ask] Param item = GACCTAGCGAAAGCTGTC (((..(((....)))))) ; retrieve measured folding enthalpy.
[reply] -11.6

[ask] Param item = GCGAGTATTCGC ((((....)))) ; retrieve measured folding enthalpy.
[reply] -26.6

[ask] Param item = GTCGTTGGAAACGATGAC (((.(.(....).).))) ; retrieve measured folding enthalpy.
[reply] -13.5

[ask] Param item = GATCTCGCATGAGATC ((((((....)))))) ; retrieve measured folding enthalpy.
[reply] -44.8

[ask] Param item = GGCTACGAAAGTAAGCC ((((((....))).))) ; retrieve measured folding enthalpy.
[reply] -36.3

[ask] Param item = GTCCGGGGAAACCCAGAC (((.(((....))).))) ; retrieve measured folding enthalpy.
[reply] -29.6

[ask] Param item = GATCCAGTAGTGGATC ((((((....)))))) ; retrieve measured folding enthalpy.
[reply] -32

[ask] Param item = GGTATCGGAAACGATGCC ((.((((....)))).)) ; retrieve measured folding enthalpy.
[reply] -37.9

[ask] Param item = GCTGGAGGAAACTTCGGC ((.(.((....)).).)) ; retrieve measured folding enthalpy.
[reply] -29.6

[ask] Param item = GCCAAGGGAAACTTTGGC (((((.(....).))))) ; retrieve measured folding enthalpy.
[reply] -30.1

[ask] Param item = GCGAACCTTCGC ((((....)))) ; retrieve measured folding enthalpy.
[reply] -24.2

[ask] Param item = GTAGTTACGAAAGTATAC (((..(((....)))))) ; retrieve measured folding enthalpy.
[reply] -10.3

[ask] Param item = GTAAACGGAAACGCTTAC ((((.((....)).)))) ; retrieve measured folding enthalpy.
[reply] -29.5

[ask] Param item = GACTGAGGAAACCCAGTC (((((.(....).))))) ; retrieve measured folding enthalpy.
[reply] -33.7

[ask] Param item = GATCATTGAATGATC ((((((...)))))) ; retrieve measured folding enthalpy.
[reply] -35.9

[ask] Param item = GGGAGGTCGAAAGACCCC (((..(((....)))))) ; retrieve measured folding enthalpy.
[reply] -14.4

[ask] Param item = GTGCTCGAAAGAGCTCAC ((((((....)))..))) ; retrieve measured folding enthalpy.
[reply] -10.8

[ask] Param item = CGATCGGAAACGACGTCG ((((((....)))..))) ; retrieve measured folding enthalpy.
[reply] -18.6

[ask] Param item = GGAACCGAAAGGTGTTCC ((((((....)))..))) ; retrieve measured folding enthalpy.
[reply] -17.6

[ask] Param item = GTGACCACGAAAGTGCAC (((..(((....)))))) ; retrieve measured folding enthalpy.
[reply] -12

[ask] Param item = GGTAATCGAAAGATAACC (((.(((....))).))) ; retrieve measured folding enthalpy.
[reply] -26.3

[ask] Param item = GACCATGGAAACGTGGTC (((((.(....).))))) ; retrieve measured folding enthalpy.
[reply] -42.7

[ask] Param item = GCTGATGGAAACGTTAGC (((.(.(....).).))) ; retrieve measured folding enthalpy.
[reply] -11.2

[ask] Param item = TAAACGAAAGTTTA (((((....))))) ; retrieve measured folding enthalpy.
[reply] -15.4

[ask] Param item = GACCTTGGAAACAAGGCC (.(((((....))))).) ; retrieve measured folding enthalpy.
[reply] -17.2

[ask] Param item = GATCGTTGGTACGATC ((((((....)))))) ; retrieve measured folding enthalpy.
[reply] -38.4

[ask] Param item = GCTGGAGAAATCCAGC ((((((....)))))) ; retrieve measured folding enthalpy.
[reply] -35.9

[ask] Param item = GTCCACGGAAACACGGAC ((((..(....)..)))) ; retrieve measured folding enthalpy.
[reply] -18.4

[ask] Param item = CGCGGAAGGCTCCGCG ((((((....)))))) ; retrieve measured folding enthalpy.
[reply] -30.1

[ask] Param item = GTCATAGGAAACTATGAC (((((((....))))))) ; retrieve measured folding enthalpy.
[reply] -39.3

[ask] Param item = GAACTGCGAAAGCACTTC (((.(((....))).))) ; retrieve measured folding enthalpy.
[reply] -10.9

All values here come from the array DNA melting data of Ke et al. (doi:10.1101/2024.01.08.574731).
